Cited source for all entries: ChEMBL document CHEMBL1201862

Test system: MDA-MB-231
Assay: NCI tumour cell line growth inhibition, 48 h
The source made the active and inactive calls. Cut-off read from the data, not from the text of the source: active = GI50 up to about 1.1 µM and inactive = higher.
Provide the recorded GI50 for the entries that follow.

Query :: # GI50 lookup, item CC1=CC(=O)N(n2c(C)n[nH]c2=O)C1=O
Result :: > 100 µM (inactive)

Query :: Next entry: OC1COC(OCc2ccccc2)C(O)C1O (stereo unspecified)
Result :: > 100 µM (inactive)

Query :: Next entry: O=C1c2cscc2C(=O)c2c(OCc3ccccc3)ccc(OCc3ccccc3)c21
Result :: > 100 µM (inactive)

Query :: Next entry: CCOC(=O)c1c(Br)c(-c2ccc([N+](=O)[O-])cc2)c(Br)n1C
Result :: > 10 µM (inactive)

Query :: Next entry: c1ccc2c[n+](CCCC[n+]3ccc4ccccc4c3)ccc2c1
Result :: > 100 µM (inactive)

Query :: Next entry: COc1cc(/C=C/c2ccccn2)cc(OC)c1OC
Result :: > 10 µM (inactive)

Query :: Next entry: CCOC(=O)/C=C\C(C#N)(C#N)/N=C/c1ccsc1
Result :: 16.3 µM (inactive)

Query :: Next entry: CC(=O)CC1(CBr)Nc2ccc([N+](=O)[O-])cc2NC1=O (stereo unspecified)
Result :: > 100 µM (inactive)

Query :: Next entry: CC(C)(C)OC(=O)NC(Cc1ccc(OCc2ccccc2)cn1)C(=O)NCc1ccccc1 (stereo unspecified)
Result :: 24.6 µM (inactive)

Query :: Next entry: O=C1Nc2ccccc2S/C1=C\c1cccc(C(F)(F)F)c1
Result :: 7.85 µM (inactive)

Query :: Next entry: CC1CC(C)(C)CC(OCCN2CCCCC2)(c2ccccc2)C1 (stereo unspecified)
Result :: 11.4 µM (inactive)
